For each of the compounds below, state its T/C.
System: BDF1 mice, B16 melanoma ip, median survival T/C
Measurement Protocol: NCI In Vivo Anticancer Drug Screen. Data for tumor model B16 Melanoma (intraperitoneal) in B6D2F1 (BDF1) mice
Settings: endpoint: median survival time; dose: 100.0 mg/kg/injection; schedule: Q01DX009 (ip); vehicle: Klucel (hydroxypropylcellulose) (HPC); higher = longer survival
Toxic doses and inconclusive results are not listed.

Looking up CC(=O)C(N=Nc1ccccc1)C(C)=O , I see its T/C listed as 113 % of control

Record COc1ccc(OC(=O)Nc2ccccc2OC)cc1 , field T/C: 100 % of control

Just so you know, measured T/C for CSCCC(NC(=O)c1ccccc1)C(=O)O (configuration not stated) came out at 88 % of control

Notebook: COc1ccc(C(=O)c2cc(OC)c(OC)c(OC)c2)cc1OC , T/C read as 110 % of control

Quick note, T/C for COc1ccc(NC(=O)COc2ccccc2Br)cc1 landed at 103 % of control

According to the records, this compound O=C(O)C(Cc1cc(I)c(O)c(I)c1)c1ccccc1 (configuration not stated) displays T/C of 109 % of control

// sample CC(C)NNC(=O)c1ccccc1N , its T/C was 95 % of control
